- measurementTarget: SCD5 (Homo sapiens)
- Construct: host or cells: S. cerevisiae ole1Δ strain (W303 pdr1Δ pdr3Δ background), plasmid pRS316 with TDH3 promoter and CYC1 terminator
- Sequence (Q86SK9 1-330): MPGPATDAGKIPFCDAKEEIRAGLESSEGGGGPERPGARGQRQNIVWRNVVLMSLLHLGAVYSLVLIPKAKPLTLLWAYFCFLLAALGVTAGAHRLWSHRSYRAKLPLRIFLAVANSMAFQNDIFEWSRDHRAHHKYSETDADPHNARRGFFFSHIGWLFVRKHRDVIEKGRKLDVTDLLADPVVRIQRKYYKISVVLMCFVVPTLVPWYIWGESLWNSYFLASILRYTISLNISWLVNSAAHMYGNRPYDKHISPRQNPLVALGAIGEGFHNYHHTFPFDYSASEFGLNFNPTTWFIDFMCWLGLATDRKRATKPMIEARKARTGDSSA
- protocolSummary: Growth inhibition of humanized yeast strain expressing SCD5 as sole desaturase
- Assay type: cell-based
- studyConditions: humanized yeast strain expressing SCD5
valueKind: IC50

Some compounds with recorded IC50:
CC(C)n1ncc2ccc(-c3noc(C4CCCN(C(=O)OC(C)(C)C)C4)n3)cc21 (centres unmarked) [Compound 563]
> 45 µM
Cc1nn(C)c2cc(-c3noc([C@H]4CCN(C(=O)CNC(=O)c5ccccc5)CC4(F)F)n3)ccc12 [Compound 578]
1.49 µM
CCOc1ncc(-c2noc(C3CCN(C(=O)CNC(=O)c4ccccc4)CC3)n2)cc1OC [Compound 132]
> 45 µM
CC(C)n1ncc2ccc(-c3noc(N4CCN(C(=O)OCC(F)(F)F)CC4)n3)cc21 [Compound 593]
> 45 µM

Query: Consider the compound CCOc1ccc(-c2noc(C3CCN(C(=O)C4CN(C(=O)c5ccccc5)C4)CC3)n2)cc1OC [Compound 237] . State its measured IC50.
Response: 32.6 µM

Query: Consider the compound CC(C)n1ncc2ccc(-c3noc(C4CCN(C(=O)CNC(=O)c5ccc(C#N)cc5)CC4(F)F)n3)cc21 (centres unmarked) [Compound 552] . State its measured IC50.
Response: > 45 µM

Query: Consider the compound COc1cc(-c2noc(C3CCN(C(=O)CNC(=O)c4ccccc4)CC3)n2)ccc1OC(F)(F)F [Compound 253] . State its measured IC50.
Response: > 45 µM

Query: Consider the compound Cn1c(=O)[nH]c2ccc(-c3noc(C4CCN(C(=O)C5CC(=O)N(c6ccccc6)C5)CC4)n3)cc21 (centres unmarked) [Compound 134] . State its measured IC50.
Response: > 45 µM

###

- measurementTarget: SCD1 (Homo sapiens, UniProt O00767)
- Construct: host or cells: S. cerevisiae ole1Δ strain (W303 pdr1Δ pdr3Δ background), plasmid pRS316 with TDH3 promoter and CYC1 terminator
- Sequence (O00767 whole entry): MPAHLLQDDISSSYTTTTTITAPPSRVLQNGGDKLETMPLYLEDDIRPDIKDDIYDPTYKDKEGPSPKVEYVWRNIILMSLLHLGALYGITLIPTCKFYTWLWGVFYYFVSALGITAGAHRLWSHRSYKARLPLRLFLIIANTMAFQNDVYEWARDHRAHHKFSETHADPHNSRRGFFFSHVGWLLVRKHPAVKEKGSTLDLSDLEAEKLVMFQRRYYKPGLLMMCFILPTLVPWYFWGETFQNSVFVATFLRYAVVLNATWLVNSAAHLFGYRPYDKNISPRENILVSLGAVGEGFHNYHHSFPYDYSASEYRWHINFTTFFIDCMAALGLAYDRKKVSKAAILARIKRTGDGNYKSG
- protocolSummary: Growth inhibition of humanized yeast strain expressing SCD1 as sole desaturase
- Format: cell-based
- studyConditions: humanized yeast strain expressing SCD1
Catalogue of IC50 readings, one per entry.

Some compounds with recorded IC50:
COc1cccc(-c2noc(C3CCN(C(=O)CNC(=O)c4ccccc4)CC3)n2)c1 [compound 11]
> 45 µM
CC(C)n1ncc2ccc(-c3noc(C4CCN(C(=O)CNC(=O)c5ccccc5)CC4)n3)cc21 [Compound 171]
40.4 µM
Cc1nn(C)c2cc(-c3noc(C4CCN(C(=O)CNC(=O)c5cccc(Cl)c5)CC4(F)F)n3)ccc12 (stereo not shown) [Compound 603]
7.26 µM
Cc1nn(C)c2cc(-c3noc(C4CCN(C(=O)C5CNC(=O)C5)CC4)n3)ccc12 (stereo not shown) [Compound 126]
> 45 µM

Query: Consider the compound Cc1nn(C)c2ccc(-c3noc(C4CCN(C(=O)CNC(=O)c5ccccc5)CC4)n3)cc12 [Compound 95] . State its measured IC50.
Response: 39.2 µM

Query: Consider the compound Cc1nn(C)c2cc(-c3noc(C4CCN(C(=O)C5CC(=O)N(c6ccccc6)C5)CC4)n3)cnc12 (stereo not shown) [Compound 138] . State its measured IC50.
Response: 37.3 µM

Query: Consider the compound Cc1nn(C)c2cc(-c3noc(C4CCN(C(=O)C5CC(=O)N(c6ccc(F)cc6)C5)CC4)n3)ccc12 (stereo not shown) [Compound 188] . State its measured IC50.
Response: > 45 µM

Query: Consider the compound COc1ccc(-c2noc(C3CCN(C(=O)C4CC(=O)N(c5cccc(C#N)c5)C4)CC3)n2)cc1OC(C)C (stereo not shown) [Compound 296] . State its measured IC50.
Response: > 45 µM

Query: Consider the compound Cc1ccc(N2C[C@H](C(=O)N3CCC(c4nc(-c5ccc6c(C)nn(C)c6c5)no4)CC3)CC2=O)nc1 [Compound 303] . State its measured IC50.
Response: ≥ 45 µM

Query: Consider the compound Cn1ncc2c1CN(c1noc(C3CCN(C(=O)C4CC(=O)N(c5ccccc5)C4)CC3)n1)CC2 (stereo not shown) [Compound 243] . State its measured IC50.
Response: > 45 µM

Query: Consider the compound Cc1nn(C)c2cc(-c3noc(N4CCC(C(=O)N5CCO[C@@H](c6ccccc6)C5)CC4)n3)ccc12 [Compound 210] . State its measured IC50.
Response: > 45 µM

Query: Consider the compound Cc1nn(C)c2cc(-c3noc(C4CCN(C(=O)C5CC(=O)N(c6cccc(C#N)c6)C5)CC4)n3)ccc12 (stereo not shown) [Compound 168] . State its measured IC50.
Response: > 45 µM

Query: Consider the compound Cc1nn(C)c2cc(-c3noc(C4CCN(C(=O)[C@H]5CC(=O)N(c6ccccc6)C5)C(C)C4)n3)ccc12 (stereo partly shown) [Compound 240] . State its measured IC50.
Response: > 45 µM

Query: Consider the compound CC(C)n1ncc2ccc(-c3noc(C4CCN(C(=O)CNC(=O)c5cccc(Cl)c5)CC4(F)F)n3)cc21 (stereo not shown) [Compound 522] . State its measured IC50.
Response: > 45 µM

Query: Consider the compound CCOc1cc(-c2noc(C3CCN(C(=O)CNC(=O)c4ccccc4)CC3)n2)ccc1OC [Compound 199] . State its measured IC50.
Response: > 45 µM

Query: Consider the compound Cc1ncc2ccc(-c3noc(C4CCN(C(=O)C5CC(=O)N(c6ccccc6)C5)CC4)n3)cn12 (stereo not shown) [Compound 216] . State its measured IC50.
Response: > 45 µM

Query: Consider the compound CCOc1ccc(-c2noc(N3CCC(C(=O)N4CCOC(c5ccccc5)C4)CC3)n2)cc1OC (stereo not shown) [Compound 112] . State its measured IC50.
Response: > 45 µM

Query: Consider the compound CCN(Cc1nc(-c2ccccc2)no1)C(=O)Cc1cccc2ccccc12 [Compound 156] . State its measured IC50.
Response: > 45 µM

Query: Consider the compound COc1ccc(-c2noc(C3CCN(C(=O)CNC(=O)c4ccccn4)CC3)n2)cc1OC [Compound 145] . State its measured IC50.
Response: > 45 µM

Query: Consider the compound CC(C)n1ncc2ccc(-c3noc(N4C[C@@H]5CN(C(=O)OC(C)(C)C)C[C@H]5C4)n3)cc21 [Compound 513] . State its measured IC50.
Response: > 45 µM

Query: Consider the compound COc1ccc(-c2nccc(C3CCN(C(=O)CNC(=O)c4ccccc4)CC3)n2)cc1OC [Compound 221] . State its measured IC50.
Response: > 45 µM

Query: Consider the compound CC(C)n1ncc2ccc(-c3nc(C4CCN(C(=O)OC(C)(C)C)C4)no3)cc21 (stereo not shown) [Compound 524] . State its measured IC50.
Response: > 45 µM

Query: Consider the compound Cc1nn(C)c2cc(-c3noc(C4(C)CCN(C(=O)CNC(=O)c5ccccc5)CC4)n3)ccc12 [Compound 227] . State its measured IC50.
Response: 38.3 µM

Query: Consider the compound COc1ccc(-c2noc(C3CCN(C(=O)[C@@H](CO)NC(=O)c4ccccc4)CC3)n2)cc1OC [Compound 185] . State its measured IC50.
Response: > 45 µM

Query: Consider the compound COc1ccc(-c2noc(C3CCN(C(=O)[C@H](C)NC(=O)c4ccccc4)CC3)n2)cc1OC (single isomer, unassigned) [Compound 59] . State its measured IC50.
Response: > 45 µM

Query: Consider the compound Cc1nn(C)c2cc(-c3nc([C@@H]4C[C@H]5CC[C@@H](C4)N5C(=O)OC(C)(C)C)no3)ccc12 [Compound 341] . State its measured IC50.
Response: > 45 µM

Query: Consider the compound Cc1nn(C)c2cc(-c3noc(C4CCN(C(=O)[C@@H]5CN(c6ccccc6)C(=O)O5)CC4)n3)ccc12 [Compound 149] . State its measured IC50.
Response: > 45 µM

Query: Consider the compound Cn1ncc2ccc(NC(=O)C3CCN(C(=O)C4CC(=O)N(c5ccccc5)C4)CC3)cc21 (stereo not shown) [Compound 213] . State its measured IC50.
Response: > 45 µM
